Values were extracted from the supplement of paper PMC10307832.

Kindly supply the reported relative viability values for the records listed here.
Tested on: NCI-H2085
Test: relative viability (nuclei count vs DMSO), 5 days (fraction); higher = more cells survive
Conditions: first compound 0.02 µM
// no unit string in output, number only

I have this molecule here, CN1CCN(CCOc2cc(OC3CCOCC3)c3c(Nc4c(Cl)ccc5c4OCO5)ncnc3c2)CC1 [Saracatinib] + CC1(C)CCC(c2ccc(Cl)cc2)=C(CN2CCN(c3ccc(C(=O)NS(=O)(=O)c4ccc(N[C@H](CCN5CCOCC5)CSc5ccccc5)c(S(=O)(=O)C(F)(F)F)c4)cc3)CC2)C1 [Navitoclax] (partner 0.5 µM) , and I need its recorded relative viability.
1.12

And CN1CCN(CCOc2cc(OC3CCOCC3)c3c(Nc4c(Cl)ccc5c4OCO5)ncnc3c2)CC1 [Saracatinib] + O=C(CCCCCCC(=O)Nc1ccccc1)NO [Vorinostat] (partner 1 µM) ?
0.816

Try CCNC(=O)c1noc(-c2cc(C(C)C)c(O)cc2O)c1-c1ccc(CN2CCOCC2)cc1 [Luminespib] + CC(C)C[C@H](NC(=O)[C@H](Cc1ccccc1)NC(=O)c1cnccn1)B(O)O [Bortezomib] (partner 0.002 µM) next.
0.818

Next: CN1CCN(CCOc2cc(OC3CCOCC3)c3c(Nc4c(Cl)ccc5c4OCO5)ncnc3c2)CC1 [Saracatinib] + Nc1ncn([C@H]2C[C@H](O)[C@@H](CO)O2)c(=O)n1 [Decitabine] (partner 2 µM)
0.531

Could you do the same for CN1CCN(CCOc2cc(OC3CCOCC3)c3c(Nc4c(Cl)ccc5c4OCO5)ncnc3c2)CC1 [Saracatinib] + Cc1nc(Nc2ncc(C(=O)Nc3c(C)cccc3Cl)s2)cc(N2CCN(CCO)CC2)n1 [Dasatinib] (partner 0.075 µM) , please?
0.286

Now consider CCNC(=O)c1noc(-c2cc(C(C)C)c(O)cc2O)c1-c1ccc(CN2CCOCC2)cc1 [Luminespib] + Nc1ncn([C@H]2C[C@H](O)[C@@H](CO)O2)c(=O)n1 [Decitabine] (partner 2 µM) .
0.519

Query CN1CCN(CCOc2cc(OC3CCOCC3)c3c(Nc4c(Cl)ccc5c4OCO5)ncnc3c2)CC1 [Saracatinib] + CCNC(=O)c1noc(-c2cc(C(C)C)c(O)cc2O)c1-c1ccc(CN2CCOCC2)cc1 [Luminespib] (partner 0.01 µM) next
0.411

And the next one, CCNC(=O)c1noc(-c2cc(C(C)C)c(O)cc2O)c1-c1ccc(CN2CCOCC2)cc1 [Luminespib] + N=C(N)NC(=N)NCCc1ccccc1 [Phenformin] (partner 250 µM) ?
0.408

Further, for CN1CCN(CCOc2cc(OC3CCOCC3)c3c(Nc4c(Cl)ccc5c4OCO5)ncnc3c2)CC1 [Saracatinib] + O=C(c1cc(Cc2n[nH]c(=O)c3ccccc23)ccc1F)N1CCN(C(=O)C2CC2)CC1 [Olaparib] (partner 8 µM) ?
0.802

* * *

System: Calu-6
Assay: relative viability (nuclei count vs DMSO), 5 days (fraction); higher = more cells survive
Conditions: first compound 2 µM
measurement.type: relative viability
// no unit, no text: just the number

Requested field: relative viability. Item: CN1CCN(CCOc2cc(OC3CCOCC3)c3c(Nc4c(Cl)ccc5c4OCO5)ncnc3c2)CC1 [Saracatinib] + CS(=O)(=O)N1CCN(Cc2cc3nc(-c4cccc5[nH]ncc45)nc(N4CCOCC4)c3s2)CC1 [Pictilisib] (partner 1 µM)
0.613

Would you mind doing CN1CCN(CCOc2cc(OC3CCOCC3)c3c(Nc4c(Cl)ccc5c4OCO5)ncnc3c2)CC1 [Saracatinib] + COc1cc2c(Oc3ccc(NC(=O)C4(C(=O)Nc5ccc(F)cc5)CC4)cc3F)ccnc2cc1OCCCN1CCOCC1 [Foretinib] (partner 0.25 µM) as well?
0.581

What would you report for CN1CCN(CCOc2cc(OC3CCOCC3)c3c(Nc4c(Cl)ccc5c4OCO5)ncnc3c2)CC1 [Saracatinib] + C[C@]1(O)C[C@@H](c2nc(-c3ccc4ccc(-c5ccccc5)nc4c3)c3c(N)nccn32)C1 [Linsitinib] (partner 1 µM) ?
0.68

Cc1csc(=NC2CCCCC2)n1/N=C/c1ccc(O)c(O)c1O [MIM1] + C[C@]1(O)C[C@@H](c2nc(-c3ccc4ccc(-c5ccccc5)nc4c3)c3c(N)nccn32)C1 [Linsitinib] (partner 1 µM) , same question.
0.897
